tested on: Staphylococcus aureus; assay: Antimicrobial activity against […] Staphylococcus aureus ATCC43300 measured after 24 hrs by CLSI protocol based microdilution method; type: functional
Below, each entry is listed alongside its reported MIC.

> print(dat)
                                   molecule  property.name  reported.measurement
1  Cn1c(C2CC(=O)N(c3cccc(Br)c3OCC(F)(F)F)C2)nc2ccccc21 (stereo not drawn)            MIC            > 32 µg/mL
2  Cc1c(Br)cccc1N1C[C@H](c2nc3ccccc3n2C)CC1=O            MIC            > 32 µg/mL
3   Cn1c(C(=O)NCCC(=O)NCc2ccccc2)nc2ccccc21            MIC            > 32 µg/mL
4  CC(=O)c1ccc(N2CC(c3nc4ccccc4n3C)CC2=O)cc1Cl (stereo not drawn)            MIC            > 32 µg/mL
5  Cn1c(C2CC(=O)N(c3ccccc3)C2)nc2ccccc21 (stereo not drawn)            MIC            > 32 µg/mL
6           Cn1c(C(=O)NCc2ccccc2)nc2ccccc21            MIC            > 32 µg/mL

Request: Using the record for Cc1c(O)cccc1N1CC(c2nc3ccccc3n2C)CC1=O (stereo not drawn) , report its MIC.
Result: 8 µg/mL

Request: Continue with Cn1c(C2CC(=O)N(c3cccc4ccccc34)C2)nc2ccccc21 (stereo not drawn)
Result: 16 µg/mL

Request: Repeat with Cc1cccc(N2CCC(c3nc4ccccc4n3C)C2)c1C (stereo not drawn)
Result: > 32 µg/mL

Request: And then COc1c(Br)cccc1N1CC(c2nc3ccccc3n2C)CC1=O (stereo not drawn) , what is it?
Result: 2 µg/mL

Request: Subsequent entry: Cn1ccc2c(N3CC(c4nc5ccccc5n4C)CC3=O)cccc21 (stereo not drawn)
Result: > 32 µg/mL

Request: Further, for Cc1c(Br)cccc1N1C[C@@H](c2nc3ccccc3n2C)CC1=O ?
Result: 0.5 µg/mL
